- Test details: Pharmacokinetic studies of FFC in broilers
- Assay type: in vivo, Arbor Acres (AA) broilers
- Conditions used: Arbor Acres (AA) broiler, plasma, po, 20 mg/kg, with gefitinib 100 mg/kg (BCRP inhibitor, co-dosed orally), oral 20 mg/kg, 8-week old broilers administered gefitinib (100 mg/kg); read-out: AUC0~12h

| Sample smiles | Units symbol | AUC(0-t) |
| --- | --- | --- |
| CS(=O)(=O)c1ccc([C@@H](O)[C@@H](CF)NC(=O)C(Cl)Cl)cc1 | ng·h/mL | 8010 |

----------
- Test details: Pharmacokinetic studies of FFC in broilers
- Format: in vivo, Arbor Acres (AA) broilers
- Conditions used: Arbor Acres (AA) broiler, plasma, po, 20 mg/kg, oral 20 mg/kg, 4-week old broilers; read-out: T1/2β (converted)

| Sample smiles | half-life, h |
| --- | --- |
| CS(=O)(=O)c1ccc([C@@H](O)[C@@H](CF)NC(=O)C(Cl)Cl)cc1 | 3.27 |
